The reported measurements were obtained from patent US20240409663A1.

Target: T1, human GPC3-his tag protein (human, UniProt P51654 25-559, limits assumed)
T1 construct: recombinant soluble antigen used as analyte in all Biacore runs; also called recombinant GPC3 protein; rhGPC3-His; not shown: His tag
Assay: SPR Biacore 8K, mAb captured, affinity ranking
pKd: −log10 of the molar value.
Catalogue of pKd values
OUTCOME MEASURE: pKd

INSERT INTO assay_data (binder, outcome_measure, value) VALUES
  ('Hu 52H5D3B8-7 (antibody, V domains shown, humanized 52H5D3B8; also called 52H5D3B8 VH3 + VL0) VH: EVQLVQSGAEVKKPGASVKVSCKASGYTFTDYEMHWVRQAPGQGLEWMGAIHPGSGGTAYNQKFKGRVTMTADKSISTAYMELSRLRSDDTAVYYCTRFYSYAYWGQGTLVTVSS VL: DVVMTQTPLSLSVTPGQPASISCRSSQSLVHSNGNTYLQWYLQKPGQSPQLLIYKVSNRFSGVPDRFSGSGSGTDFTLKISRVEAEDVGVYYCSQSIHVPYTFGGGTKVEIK', 'pKd', 8.49),
  ('Hu 52H5D3B8-11 (antibody, V domains shown, humanized 52H5D3B8; also called 52H5D3B8 VH5 + VL0) VH: EVQLVQSGAEVKKPGASVKVSCKASGYTFTDYEMHWVRQAPGQGLEWIGAIHPGSGGTAYNQKFKGKATLTADKSISTAYMELSRLRSDDTAVYYCTRFYSYAYWGQGTLVTVSS VL: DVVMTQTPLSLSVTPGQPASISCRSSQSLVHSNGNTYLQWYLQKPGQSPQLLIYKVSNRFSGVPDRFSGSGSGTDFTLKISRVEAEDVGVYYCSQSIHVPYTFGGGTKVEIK', 'pKd', 8.51),
  ('Hu 52H5D3B8-10 (antibody, V domains shown, humanized 52H5D3B8; also called 52H5D3B8 VH4 + VL1) VH: EVQLVQSGAEVKKPGASVKVSCKASGYTFTDYEMHWVRQAPGQGLEWIGAIHPGSGGTAYNQKFKGRVTLTADKSISTAYMELSRLRSDDTAVYYCTRFYSYAYWGQGTLVTVSS VL: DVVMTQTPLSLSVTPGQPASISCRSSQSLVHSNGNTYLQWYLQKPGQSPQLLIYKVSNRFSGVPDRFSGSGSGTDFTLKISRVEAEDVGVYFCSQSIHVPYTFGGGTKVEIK', 'pKd', 8.41),
  ('Hu 52H5D3B8-12 (antibody, V domains shown, humanized 52H5D3B8; also called 52H5D3B8 VH5 + VL1) VH: EVQLVQSGAEVKKPGASVKVSCKASGYTFTDYEMHWVRQAPGQGLEWIGAIHPGSGGTAYNQKFKGKATLTADKSISTAYMELSRLRSDDTAVYYCTRFYSYAYWGQGTLVTVSS VL: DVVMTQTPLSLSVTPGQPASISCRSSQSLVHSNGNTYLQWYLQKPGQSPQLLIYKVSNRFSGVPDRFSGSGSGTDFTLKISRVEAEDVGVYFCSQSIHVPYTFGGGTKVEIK', 'pKd', 8.49),
  ('Hu 52H5D3B8-6 (antibody, V domains shown, humanized 52H5D3B8; also called 52H5D3B8 VH2 + VL1) VH: EVQLVQSGAEVKKPGASVKVSCKASGYTFTDYEMHWVRQAPGQGLEWMGAIHPGSGGTAYNQKFKGRVTMTADTSISTAYMELSRLRSDDTAVYYCTRFYSYAYWGQGTLVTVSS VL: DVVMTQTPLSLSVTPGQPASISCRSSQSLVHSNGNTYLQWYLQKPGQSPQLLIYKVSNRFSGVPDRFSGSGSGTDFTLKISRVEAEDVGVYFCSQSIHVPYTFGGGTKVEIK', 'pKd', 8.53);
